System: Z-138 cells
measurementProtocol: Inhibitory activity on tumor cell proliferation (Cell-Titer Glo, 8 days)
Format: cell-based
experimentalConditions: Homo sapiens, 192 h, read-out: Inhibition of cell proliferation Z-138 IC50
From the text: Materials and cells: Z-138 cells were purchased from ATCC (USA); IMDM medium and penicillin-streptomycin were purchased from Sigma PLC. […] Detection of cell proliferation activity: The inhibitory activities of the compounds on the proliferation of Z-138 cells were detected by using the Cell-Titer Glo reagent. […] The cell viability was detected by using the Cell-Titer Glo reagent.
pIC50: −log10 of the molar value. Structures can show the parent of a compound that is named as a salt.
measuredProperty: pIC50

Use the examples below as a reference point.
* CCN1CCN(C[C@@H](O)[C@@H]2Cc3ccccc3CN2)C(=O)c2ccc(C(=O)N3C4CCC3COC4)cc21.Cl [Compound 001, hydrochloride] | 8.46
* CCN(CC)C(=O)c1ccc2c(c1)N(CC)CCN(C[C@@H](O)[C@@H]1Cc3ccccc3CN1)C2=O [Compound 019, hydrochloride] | 7.69
* CCN1CCN(C[C@@H](O)[C@@H]2Cc3ccccc3CN2)C(=O)c2ccc(C(=O)N3CCC4(CC3)CC4(F)F)cc21 [Compound 013, hydrochloride] | 8.63

a = CCN1CCN(C[C@@H](O)[C@@H]2Cc3ccccc3CN2)C(=O)c2ccc(C(=O)N(C)Cc3ccccc3)cc21 [Compound 016, hydrochloride]
b = CCN1CCN(C[C@@H](O)[C@@H]2Cc3ccccc3CN2)C(=O)c2ccc(C(=O)N3CCN(C(C)=O)CC3)cc21 [Compound 015, hydrochloride]
c = CCN1CCN(C[C@@H](O)[C@@H]2Cc3ccccc3CN2)C(=O)c2ccc(C(=O)N3CCC4(CC4)C(F)(F)C3)cc21 [Compound 012, hydrochloride]
Arrange the 3 molecules from largest to smallest pIC50. The labels, placed in the requested order, form the answer.
c, b, a
(c: 8.39, b: 7.95, a: 7.35)

###

measurementProtocol: Pharmacokinetic experiment in mice
Format: in vivo, CB17-SCID mice
experimentalConditions: female, CB17-SCID, mouse, plasma, 10 mg/kg; Mice PO (10 mpk)
measuredProperty: AUC(0-t) (ng·h/mL)
Numeric only. Scale: ng·h/mL

Fill blank: measured AUC(0-t) of the compound CCN1CCN(C[C@@H](O)[C@@H]2Cc3ccccc3CN2)C(=O)c2ccc(C(=O)N3CCC4(CC3)CC(OC)C4)cc21.Cl is ____.
2650

###

Test system: Z-138 cells
measurementProtocol: Inhibitory activity on tumor cell proliferation (Cell-Titer Glo, 8 days)
Type: cell-based
experimentalConditions: Homo sapiens, 192 h, read-out: Inhibition of cell proliferation Z-138 IC50
pIC50: −log10 of the molar value. Where a name gives a salt, the structure may show the parent alone.
measuredProperty: pIC50

- COC1CC2(CCN(C(=O)c3ccc4c(c3)OCCN(C[C@@H](O)[C@@H]3Cc5ccccc5CN3)C4=O)CC2)C1: 8.53
- CCN1CCN(C[C@@H](O)[C@@H]2Cc3ccccc3CN2)C(=O)c2ccc(C(=O)N3CCC4(CCC(OC)CC4)CC3)cc21 [Compound 006, hydrochloride]: 8.32
- O=C1c2ccc(C(=O)N3C4CCC3COC4)cc2OCCN1C[C@@H](O)[C@@H]1Cc2ccccc2CN1: 8.12
- Cl.[2H]C([2H])([2H])OC1CC2(CCN(C(=O)c3ccc4c(c3)N(CC)CCN(C[C@@H](O)[C@@H]3Cc5ccccc5CN3)C4=O)CC2)C1: 8.63

P = CCN1CCN(C[C@@H](O)[C@@H]2Cc3ccccc3CN2)C(=O)c2ccc(C(=O)N3CCC4(CCOCC4)C3)cc21 [Compound 010, hydrochloride]
Q = CCN1CCN(C[C@@H](O)[C@@H]2Cc3ccccc3CN2)C(=O)c2ccc(C(=O)N(C)CCc3ccc(F)cc3)cc21 [Compound 017, hydrochloride]
Which one would you say has the larger pIC50 value: P , or Q ? Provide the label of your selected option as the answer.
P

I = CCN1CCN(C[C@@H](O)[C@@H]2Cc3ccccc3CN2)C(=O)c2ccc(C(=O)N3CCC4(CC3)CC(C#N)C4)cc21
II = CCN1CCN(C[C@@H](O)[C@@H]2Cc3ccccc3CN2)C(=O)c2ccc(C(=O)N3CCC4(CC3)CC(O)C4)cc21
III = CCN1CCN(C[C@@H](O)[C@@H]2Cc3ccccc3CN2)C(=O)c2ccc(C(=O)N(C)CCc3cccnc3)cc21 [Compound 018, hydrochloride]
IV = CCN1CCN(C[C@@H](O)[C@@H]2Cc3ccccc3CN2)C(=O)c2ccc(C(=O)N3CC4(CCC(OC)CC4)C3)cc21 [Compound 011, hydrochloride]
V = CCN1CCN(C[C@@H](O)[C@@H]2Cc3ccccc3CN2)C(=O)c2ccc(C(=O)N3CC4(COC4)C3)cc21
Arrange the 5 compounds from largest to smallest pIC50. The labels, placed in the requested order, form the answer.
I, IV, II, III, V

I = CCN1CCN(C[C@@H](O)[C@@H]2Cc3ccccc3CN2)C(=O)c2ccc(C(=O)N3CCC4(CC3)CC(N(C)C)C4)cc21 [Compound 021, hydrochloride]
II = CCN1CCN(C[C@@H](O)[C@@H]2Cc3ccccc3CN2)C(=O)c2ccc(C(=O)N3CC4COCC4C3)cc21 (stereo partly drawn) [Compound 023, hydrochloride]
Input pair: I , II . Output: entry with lower pIC50. Provide the label of your selected option as the answer.
II

###

measurementProtocol: Pharmacokinetic experiment in mice
Format: in vivo, CB17-SCID mice
experimentalConditions: female, CB17-SCID, mouse, plasma, 2 mg/kg; Mice IV (2 mpk); read-out: Vss—obs
measuredProperty: Vd (L/kg)
Numeric only. Scale: L/kg

Fill blank: measured Vd of the compound CCN1CCN(C[C@@H](O)[C@@H]2Cc3ccccc3CN2)C(=O)c2ccc(C(=O)N3CCC4(CC3)CC(OC)C4)cc21.Cl [Compound 002] is ____.
8.2

###

studySystem: PRMT5/MEP50 (Homo sapiens)
Construct: purchased BPS Bioscience Inc. (USA)
Sequence (O14744 2-637 limits assumed): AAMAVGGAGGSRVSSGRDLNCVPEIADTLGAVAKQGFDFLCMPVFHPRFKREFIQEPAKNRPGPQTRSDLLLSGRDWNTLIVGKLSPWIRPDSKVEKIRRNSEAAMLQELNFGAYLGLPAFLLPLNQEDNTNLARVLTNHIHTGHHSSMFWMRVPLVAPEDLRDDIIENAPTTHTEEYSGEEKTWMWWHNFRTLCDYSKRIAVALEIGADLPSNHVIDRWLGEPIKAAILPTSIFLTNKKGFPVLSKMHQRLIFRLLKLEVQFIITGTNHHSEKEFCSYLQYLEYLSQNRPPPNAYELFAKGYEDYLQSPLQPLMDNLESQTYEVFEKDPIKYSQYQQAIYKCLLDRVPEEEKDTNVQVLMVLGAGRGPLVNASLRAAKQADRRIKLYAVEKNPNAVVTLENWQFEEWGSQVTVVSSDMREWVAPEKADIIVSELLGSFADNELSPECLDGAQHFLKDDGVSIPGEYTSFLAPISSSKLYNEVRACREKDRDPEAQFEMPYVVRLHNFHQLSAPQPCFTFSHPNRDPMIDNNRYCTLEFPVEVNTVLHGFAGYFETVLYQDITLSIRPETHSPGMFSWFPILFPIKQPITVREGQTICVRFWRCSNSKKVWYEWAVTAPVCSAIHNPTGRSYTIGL
Sequence (Q9BQA1 2-342 partner limits assumed): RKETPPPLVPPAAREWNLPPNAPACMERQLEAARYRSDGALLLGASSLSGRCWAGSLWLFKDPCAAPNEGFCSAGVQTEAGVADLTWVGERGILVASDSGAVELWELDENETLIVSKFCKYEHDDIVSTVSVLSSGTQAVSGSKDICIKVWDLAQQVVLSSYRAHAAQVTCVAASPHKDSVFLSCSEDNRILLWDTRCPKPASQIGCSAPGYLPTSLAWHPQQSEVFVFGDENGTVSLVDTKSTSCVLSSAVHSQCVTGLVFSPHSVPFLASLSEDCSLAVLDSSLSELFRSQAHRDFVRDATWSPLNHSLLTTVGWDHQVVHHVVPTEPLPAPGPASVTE
measurementProtocol: PRMT5 enzymatic activity inhibition experiment (AlphaScreen)
Type: biochemical
measuredProperty: pIC50
// returns pIC50 (minus log10 of molar concentration), number only

Use the examples below as a reference point.
- COC1CC2CCC(C1)N2C(=O)c1ccc2c(c1)N(C)CCN(C[C@@H](O)[C@@H]1Cc3ccccc3CN1)C2=O.Cl (stereo partly shown) [Compound 005, hydrochloride]: 8.17
- CCN1CCN(C[C@@H](O)[C@@H]2Cc3ccccc3CN2)C(=O)c2ccc(C(=O)N3C4CCC3COC4)cc21.Cl [Compound 001, hydrochloride]: 8.34
- CCN1CCN(C[C@@H](O)[C@@H]2Cc3ccccc3CN2)C(=O)c2ccc(C(=O)N3C4CCC3CC(OC)C4)cc21.Cl (stereo partly shown) [Compound 004, hydrochloride]: 8.34

Now examine the next entry.
Fill blank: measured pIC50 of the molecule CCN1CCN(C[C@@H](O)[C@@H]2Cc3ccccc3CN2)C(=O)c2ccc(C(=O)N3CCC4(CC3)CC(OC)C4)cc21.Cl [Compound 002, hydrochloride] is ____.
8.39

###

measurementProtocol: in vitro
experimentalConditions: mouse, hepatocytes
measuredProperty: half-life at 1 μM (h)

P = CCN1CCN(C[C@@H](O)[C@@H]2Cc3ccccc3CN2)C(=O)c2ccc(C(=O)N3CCC4(CC3)CC(O)C4)cc21 [Compound 024]
Q = CCN1CCN(C[C@@H](O)[C@@H]2Cc3ccccc3CN2)C(=O)c2ccc(C(=O)N3CCC4(CC3)CC(C#N)C4)cc21 [Compound 003]
Which one would you say has the larger half-life at 1 μM value: P , or Q ? Provide the label of your selected option as the answer.
Q

###

measurementProtocol: Hepatocellular metabolic stability test, human hepatocytes
measuredProperty: half-life at 1 μM (h)
Numeric only. Scale: h

• CCN1CCN(C[C@@H](O)[C@@H]2Cc3ccccc3CN2)C(=O)c2ccc(C(=O)N3CCC4(CC3)CC(OC)C4)cc21.Cl = 4.21
• CCN1CCN(C[C@@H](O)[C@@H]2Cc3ccccc3CN2)C(=O)c2ccc(C(=O)N3C4CCC3CC(OC)C4)cc21.Cl (stereo partly shown) = 11.2
• COC1CC2CCC(C1)N2C(=O)c1ccc2c(c1)N(C)CCN(C[C@@H](O)[C@@H]1Cc3ccccc3CN1)C2=O.Cl (stereo partly shown) = 5.61

Now examine the next entry.
Fill blank: measured half-life at 1 μM of the compound CCN1CCN(C[C@@H](O)[C@@H]2Cc3ccccc3CN2)C(=O)c2ccc(C(=O)N3C4CCC3COC4)cc21.Cl is ____.
24.5

###

measurementProtocol: Hepatocellular metabolic stability test, mouse hepatocytes
Below, each entry is listed with its recorded half-life at 1 μM.
Numeric only. Scale: min

Use the examples below as a reference point.
* CCN1CCN(C[C@@H](O)[C@@H]2Cc3ccccc3CN2)C(=O)c2ccc(C(=O)N3C4CCC3COC4)cc21.Cl | 122
* CCN1CCN(C[C@@H](O)[C@@H]2Cc3ccccc3CN2)C(=O)c2ccc(C(=O)N3CCC4(CC3)CC(OC)C4)cc21.Cl | 94.6
* CCN1CCN(C[C@@H](O)[C@@H]2Cc3ccccc3CN2)C(=O)c2ccc(C(=O)N3C4CCC3CC(OC)C4)cc21.Cl (stereo partly shown) | 52.3

Now examine the next entry.
Fill blank: measured half-life at 1 μM of the molecule COC1CC2CCC(C1)N2C(=O)c1ccc2c(c1)N(C)CCN(C[C@@H](O)[C@@H]1Cc3ccccc3CN1)C2=O.Cl (stereo partly shown) is ____.
77.8
